Below, each entry is listed with its recorded melting point.

Solved cases below.
CC(=O)N[C@H](C(=O)N1C[C@@H]2C(=O)CCC(c3ccccc3)(c3ccccc3)[C@@H]2C1)c1ccccc1: 190 °C
Cn1ncc2c3cc(Cl)c(Cl)cc3n(C3OC(CO)C(O)C3O)c21 (configuration not stated): 135 to 138 °C
O=C(C=Cc1ccsc1)Nc1nnn[nH]1: 273 to 274 °C
CC(C)(C)c1ccc(CCOc2ncnc3cnccc23)cc1: 59 to 60 °C
CC(C)(C)C1=C(C#N)C(c2cccc(C#N)c2Br)c2c[nH]nc2N1 (configuration not stated): 251 °C
CCCCCc1nc(-c2ccccc2)c(CCC(=O)O)o1: 80 to 81 °C
COC(=O)n1c(=O)n(C(C)C)c2nc(=O)[nH]cc21: 303 to 306 °C
CCOC(=O)NN(C)c1ccc(-c2ccccc2)nn1: 129 to 130 °C

Please look up its melting point: `CC1(C)C(=O)N(c2ccnc(NC(=O)NCc3ccccn3)c2)c2cccnc21`
160 to 163 °C

Suppose we examine the compound `COc1ccc(N2CCOCC2)c2sc(C(=O)NCC(=O)c3sc4ccccc4c3C)nc12` ; what melting point value has been reported?
180 °C

Entry under review: `CCc1nc2ncnn2c(N)c1CCc1ccccc1` . Reported melting point?
210 to 211 °C

Find the recorded melting point belonging to `COC(=O)CCCc1cc2nc(Cl)ccc2n1S(=O)(=O)c1ccc(C)cc1Cl` and report it.
88 to 89 °C

melting point lookup needed for `O=[N+]([O-])C(=Cc1ccc(F)cc1)c1ccc(F)cc1` , thanks.
107 to 109 °C

Can you share its melting point? I mean this compound: `OCc1ccc2c(Cl)cccc2c1`
72 to 75 °C
